biological target: T1, insulin (UniProt P01308 25-54; P01308 90-110, limits assumed); test: SPR, Biacore T200; target immobilized on CM5, His6-tagged Y variant injected; 1:1 Langmuir
T1 construct: Mature insulin has two chains (A and B) from one precursor; also called b-insulin
T1 sequence (P01308 25-54 limits assumed, form in doubt, chain 1 of 2): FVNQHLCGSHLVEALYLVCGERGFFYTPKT
T1 sequence (P01308 90-110 limits assumed, form in doubt, chain 2 of 2): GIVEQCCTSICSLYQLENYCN
Measurement kind: kon (M⁻¹ s⁻¹)

[[record]]
binder = "Y00299 (designed binder, From library Ylib002Naive.I) MGSSHHHHHHGSSLAEAKEAAIAELDSKGVGAYQIKFIQVAKTVEQVQILKQAILADLPA"
numeric_readout = 310000

[[record]]
binder = "Y00330 (designed binder, From library Ylib002Naive.I) MGSSHHHHHHGSSLAEAKEAAIAELDSKGVGAKYIKMIQMAKHVETVQYMKQAILASLPA"
numeric_readout = 30000

[[record]]
binder = "Y02711 (designed binder, Y00358 with Q26E) MGSSHHHHHHGSSLAEAKEAAIAELDSKGVGAAKIKWIEDAKSVETVQFLKQAILAELPA"
numeric_readout = 150000

[[record]]
binder = "Y00304 (designed binder, From library Ylib002Naive.I) MGSSHHHHHHGSSLAEAKEAAIAELDSKGVGAYQIKFIQVAHDVEEVQILKQAILADLPA"
numeric_readout = 85000

[[record]]
binder = "Y00345 (designed binder, From library Ylib002Naive.I) MGSSHHHHHHGSSLAEAKEAAIAELDSKGVGAYQIKFIQVAKTVEAVQAIKQAILADLPA"
numeric_readout = 290000

[[record]]
binder = "Y02716 (designed binder, Y00301 with K15Y + Q26E) MGSSHHHHHHGSSLAEAKEAAIAELDSYGVGARQIKWIEQAKSVEVVQWLKQAILADLPA"
numeric_readout = "2.7e+07"

[[record]]
binder = "Y02713 (designed binder, Y00310 with K15Y) MGSSHHHHHHGSSLAEAKEAAIAELDSYGVGAYQIKFIQIAHTVEEVQLMKQAILADLPA"
numeric_readout = 110000

[[record]]
binder = "Y02715 (designed binder, Y00358 with K15Y + Q26E) MGSSHHHHHHGSSLAEAKEAAIAELDSYGVGAAKIKWIEDAKSVETVQFLKQAILAELPA"
numeric_readout = 6700

[[record]]
binder = "Y00361 (designed binder, From library Ylib002Naive.I) MGSSHHHHHHGSSLAEAKEAAIAELDSKGVGAKFIKMIQSAKLVETVQLLKQAILADLPA"
numeric_readout = 12000

[[record]]
binder = "Y02717 (designed binder, Y00310 with K15Y + Q26E) MGSSHHHHHHGSSLAEAKEAAIAELDSYGVGAYQIKFIEIAHTVEEVQLMKQAILADLPA"
numeric_readout = 33000

[[record]]
binder = "Y02710 (designed binder, Y00358 with K15Y) MGSSHHHHHHGSSLAEAKEAAIAELDSYGVGAAKIKWIQDAKSVETVQFLKQAILAELPA"
numeric_readout = 190000

[[record]]
binder = "Y02714 (designed binder, Y00310 with Q26E) MGSSHHHHHHGSSLAEAKEAAIAELDSKGVGAYQIKFIEIAHTVEEVQLMKQAILADLPA"
numeric_readout = 290000

[[record]]
binder = "Y00310 (designed binder, From library Ylib002Naive.I) MGSSHHHHHHGSSLAEAKEAAIAELDSKGVGAYQIKFIQIAHTVEEVQLMKQAILADLPA"
numeric_readout = 170000

[[record]]
binder = "Y02709 (designed binder, Y00358 with I9L) MGSSHHHHHHGSSLAEAKEAALAELDSKGVGAAKIKWIQDAKSVETVQFLKQAILAELPA"
numeric_readout = 27000

[[record]]
binder = "Y00356a (designed binder, From library Ylib002Naive.I; if it is only 46 residues long, an A must be added at the C-terminus) MGSSHHHHHHGSSLAEAKEAAIAELDSKGVGAKYIKMIQHAHYVEVVQWLKQAILAHLPA"
numeric_readout = "3.4e+07"

[[record]]
binder = "Y00358 (designed binder, From library Ylib002Naive.I) MGSSHHHHHHGSSLAEAKEAAIAELDSKGVGAAKIKWIQDAKSVETVQFLKQAILAELPA"
numeric_readout = 220000

